# Test system: MRP1 cells, doxorubicin viability shift, 10 uM compound
# protocol_notes: viability protection against doxorubicin, MRP-1 line – cell-based, doxorubicin EC50 shift, dose response (AID 844)
Calls of active or inactive are those of the source. No rule for the calls is given here.
readout_kind: fold increase in Dox EC50

{"columns": ["compound", "study_target", "readout_kind", "result"],
 "data": [
  ["C[C@H](C(=O)C=[N+]=[N-])N1C(=O)c2ccccc2C1=O", "MRP1 cells, doxorubicin viability shift, 10 uM compound", "fold increase in Dox EC50", "0.56 (inactive)"],
  ["CC(C)c1ccc(C(=O)CSc2ncn[nH]2)cc1", "MRP1 cells, doxorubicin viability shift, 10 uM compound", "fold increase in Dox EC50", "0.96 (inactive)"],
  ["Cc1ccc(NC(=O)CCSc2nnnn2-c2ccc3c(c2)OCO3)cc1C", "MRP1 cells, doxorubicin viability shift, 10 uM compound", "fold increase in Dox EC50", "0.74 (inactive)"],
  ["Cc1ccc(-n2c(C)nnc2SCC(=O)Nc2ccccc2)cc1", "MRP1 cells, doxorubicin viability shift, 10 uM compound", "fold increase in Dox EC50", "1 (inactive)"],
  ["COc1ccc(-c2cc(C(=O)Nc3sc4c(c3C#N)CCCC4)c3ccccc3n2)cc1", "MRP1 cells, doxorubicin viability shift, 10 uM compound", "fold increase in Dox EC50", "1.18 (inactive)"],
  ["Cc1ccc(-c2cc(C(F)F)nc(NCc3cccnc3)n2)cc1", "MRP1 cells, doxorubicin viability shift, 10 uM compound", "fold increase in Dox EC50", "0.52 (inactive)"],
  ["O=C1CCCC(O)=C1N=Nc1ccc2c(c1)OCO2", "MRP1 cells, doxorubicin viability shift, 10 uM compound", "fold increase in Dox EC50", "1.17 (inactive)"],
  ["O=C(OC1CCc2ccccc2C1=O)c1ccccc1O (stereo unspecified)", "MRP1 cells, doxorubicin viability shift, 10 uM compound", "fold increase in Dox EC50", "0.69 (inactive)"],
  ["COCCOC(=O)c1c(C)oc2ccc(OCC=C(C)C)cc12", "MRP1 cells, doxorubicin viability shift, 10 uM compound", "fold increase in Dox EC50", "0.5 (inactive)"],
  ["Cc1cc(NC(=O)CN2C(=O)S/C(=C\\c3ccccc3)C2=O)no1", "MRP1 cells, doxorubicin viability shift, 10 uM compound", "fold increase in Dox EC50", "1.03 (inactive)"],
  ["N#CCSc1nc2cc(C(=O)N3CCC(C(N)=O)CC3)ccc2c2nc3ccccc3n12", "MRP1 cells, doxorubicin viability shift, 10 uM compound", "fold increase in Dox EC50", "0.86 (inactive)"]
]}
